B1: ZC3H15 (parent)
chain: RKADFKAGKALVISGREVFEFRPE

Variants of: B1
ASSAY PROTOCOL: protein stability index of a GFP-peptide fusion (GPS, HEK-293T) (PSI 1-6); higher = more stable;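 further: lentivirally expressed fusions sorted by FACS into six bins by GFP to DsRed ratio, PSI derived from sequencing read proportions per bin multiplied by bin number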
ASSAY CONDITIONS: c terminus: a fixed tail appended
Recorded protein stability index, one value per entry.

[
  {
    "SEQUENCE ENTRY": "RKADFKAGKALIISGREVFEFRPE [V12I]",
    "protein stability index": 2.85
  },
  {
    "SEQUENCE ENTRY": "RKADFKAGKALVISGREVFEFREE [P23E]",
    "protein stability index": 3.38
  },
  {
    "SEQUENCE ENTRY": "RKADFKAGKALVISDREVFEFRPE [G15D]",
    "protein stability index": 3.38
  },
  {
    "SEQUENCE ENTRY": "RKADFKAGKYLVISGREVFEFRPE [A10Y]",
    "protein stability index": 1.92
  },
  {
    "SEQUENCE ENTRY": "RKADFKWGKALVISGREVFEFRPE [A7W]",
    "protein stability index": 1.71
  },
  {
    "SEQUENCE ENTRY": "RKADFKAGGALVISGREVFEFRPE [K9G]",
    "protein stability index": 2.28
  },
  {
    "SEQUENCE ENTRY": "RQADFKAGKALVISGREVFEFRPE [K2Q]",
    "protein stability index": 3.23
  },
  {
    "SEQUENCE ENTRY": "LKADFKAGKALVISGREVFEFRPE [R1L]",
    "protein stability index": 2.43
  },
  {
    "SEQUENCE ENTRY": "RKADVKAGKALVISGREVFEFRPE [F5V]",
    "protein stability index": 3.6
  },
  {
    "SEQUENCE ENTRY": "RKADFKAGKALVISLREVFEFRPE [G15L]",
    "protein stability index": 1.81
  },
  {
    "SEQUENCE ENTRY": "RKADFKAGKALEISGREVFEFRPE [V12E]",
    "protein stability index": 3.49
  },
  {
    "SEQUENCE ENTRY": "RKADSKAGKALVISGREVFEFRPE [F5S]",
    "protein stability index": 3.77
  },
  {
    "SEQUENCE ENTRY": "RKADFKAGKARVISGREVFEFRPE [L11R]",
    "protein stability index": 2.95
  },
  {
    "SEQUENCE ENTRY": "RKADFKAGKALVISGAEVFEFRPE [R16A]",
    "protein stability index": 2.71
  },
  {
    "SEQUENCE ENTRY": "RKADFKAGKALVISGREVQEFRPE [F19Q]",
    "protein stability index": 3.63
  },
  {
    "SEQUENCE ENTRY": "RKADFKTGKALVISGREVFEFRPE [A7T]",
    "protein stability index": 3.12
  },
  {
    "SEQUENCE ENTRY": "RKGDFKAGKALVISGREVFEFRPE [A3G]",
    "protein stability index": 3.13
  },
  {
    "SEQUENCE ENTRY": "RKADFKAGKALVISGREVFEFHPE [R22H]",
    "protein stability index": 2.72
  },
  {
    "SEQUENCE ENTRY": "RKADFKAGKALVISGREVFEFLPE [R22L]",
    "protein stability index": 2.35
  },
  {
    "SEQUENCE ENTRY": "RKADFKAGKAHVISGREVFEFRPE [L11H]",
    "protein stability index": 3.36
  },
  {
    "SEQUENCE ENTRY": "TKADFKAGKALVISGREVFEFRPE [R1T]",
    "protein stability index": 3.22
  },
  {
    "SEQUENCE ENTRY": "RKADRKAGKALVISGREVFEFRPE [F5R]",
    "protein stability index": 3.76
  },
  {
    "SEQUENCE ENTRY": "RKAVFKAGKALVISGREVFEFRPE [D4V]",
    "protein stability index": 2.2
  },
  {
    "SEQUENCE ENTRY": "RKADFKAGKALVISGRECFEFRPE [V18C]",
    "protein stability index": 2.95
  },
  {
    "SEQUENCE ENTRY": "KKADFKAGKALVISGREVFEFRPE [R1K]",
    "protein stability index": 3.32
  },
  {
    "SEQUENCE ENTRY": "RKADFKAGKPLVISGREVFEFRPE [A10P]",
    "protein stability index": 3.73
  },
  {
    "SEQUENCE ENTRY": "READFKAGKALVISGREVFEFRPE [K2E]",
    "protein stability index": 2.81
  },
  {
    "SEQUENCE ENTRY": "RKADFKAGKALVISGREVYEFRPE [F19Y]",
    "protein stability index": 2.75
  },
  {
    "SEQUENCE ENTRY": "RKADFKAGKALVISGREVFEIRPE [F21I]",
    "protein stability index": 2.68
  },
  {
    "SEQUENCE ENTRY": "RKADFTAGKALVISGREVFEFRPE [K6T]",
    "protein stability index": 2.99
  },
  {
    "SEQUENCE ENTRY": "RKADFKAGKALVISGFEVFEFRPE [R16F]",
    "protein stability index": 1.65
  },
  {
    "SEQUENCE ENTRY": "RKADFKAGKALVISGREVFEFRCE [P23C]",
    "protein stability index": 2.42
  },
  {
    "SEQUENCE ENTRY": "RKADFKAGKALVISTREVFEFRPE [G15T]",
    "protein stability index": 2.93
  },
  {
    "SEQUENCE ENTRY": "RKADPKAGKALVISGREVFEFRPE [F5P]",
    "protein stability index": 3.25
  },
  {
    "SEQUENCE ENTRY": "RKADFIAGKALVISGREVFEFRPE [K6I]",
    "protein stability index": 2.42
  },
  {
    "SEQUENCE ENTRY": "RKADFKAGKALVISGREVVEFRPE [F19V]",
    "protein stability index": 3.25
  },
  {
    "SEQUENCE ENTRY": "RKAGFKAGKALVISGREVFEFRPE [D4G]",
    "protein stability index": 2.42
  },
  {
    "SEQUENCE ENTRY": "RKADFKADKALVISGREVFEFRPE [G8D]",
    "protein stability index": 3.31
  },
  {
    "SEQUENCE ENTRY": "RKADFKAGKALVISGREVFECRPE [F21C]",
    "protein stability index": 3.78
  },
  {
    "SEQUENCE ENTRY": "RKADFKAGKALVISGREVFEFRLE [P23L]",
    "protein stability index": 1.61
  },
  {
    "SEQUENCE ENTRY": "RKADFKAGKALVISGRESFEFRPE [V18S]",
    "protein stability index": 3.34
  },
  {
    "SEQUENCE ENTRY": "RKADFKAGKALYISGREVFEFRPE [V12Y]",
    "protein stability index": 2.73
  },
  {
    "SEQUENCE ENTRY": "RKAQFKAGKALVISGREVFEFRPE [D4Q]",
    "protein stability index": 2.73
  },
  {
    "SEQUENCE ENTRY": "RKADFKAGKALDISGREVFEFRPE [V12D]",
    "protein stability index": 4.03
  },
  {
    "SEQUENCE ENTRY": "RKIDFKAGKALVISGREVFEFRPE [A3I]",
    "protein stability index": 2.71
  },
  {
    "SEQUENCE ENTRY": "RKADFKAGKALVISGREVFEFKPE [R22K]",
    "protein stability index": 3.24
  }
]
